Target: PDE5A (purified recombinant PDE5) (Homo sapiens)
Assay: Recombinant PDE isozyme assay
REPORTED METRIC: pIC50
// field semantics: pIC50 = negative decimal log of concentration (mol/L)

Request: Would you mind telling me what pIC50 value was observed for CC1=C(CCNCc2ccccc2)c2cc(F)ccc2/C1=C\c1ccc([S+](C)[O-])cc1 (stereo not shown) ?
Result: 5.05

* * *

Biological target: PDE2A (Homo sapiens, UniProt O00408)
Sequence (O00408 whole entry): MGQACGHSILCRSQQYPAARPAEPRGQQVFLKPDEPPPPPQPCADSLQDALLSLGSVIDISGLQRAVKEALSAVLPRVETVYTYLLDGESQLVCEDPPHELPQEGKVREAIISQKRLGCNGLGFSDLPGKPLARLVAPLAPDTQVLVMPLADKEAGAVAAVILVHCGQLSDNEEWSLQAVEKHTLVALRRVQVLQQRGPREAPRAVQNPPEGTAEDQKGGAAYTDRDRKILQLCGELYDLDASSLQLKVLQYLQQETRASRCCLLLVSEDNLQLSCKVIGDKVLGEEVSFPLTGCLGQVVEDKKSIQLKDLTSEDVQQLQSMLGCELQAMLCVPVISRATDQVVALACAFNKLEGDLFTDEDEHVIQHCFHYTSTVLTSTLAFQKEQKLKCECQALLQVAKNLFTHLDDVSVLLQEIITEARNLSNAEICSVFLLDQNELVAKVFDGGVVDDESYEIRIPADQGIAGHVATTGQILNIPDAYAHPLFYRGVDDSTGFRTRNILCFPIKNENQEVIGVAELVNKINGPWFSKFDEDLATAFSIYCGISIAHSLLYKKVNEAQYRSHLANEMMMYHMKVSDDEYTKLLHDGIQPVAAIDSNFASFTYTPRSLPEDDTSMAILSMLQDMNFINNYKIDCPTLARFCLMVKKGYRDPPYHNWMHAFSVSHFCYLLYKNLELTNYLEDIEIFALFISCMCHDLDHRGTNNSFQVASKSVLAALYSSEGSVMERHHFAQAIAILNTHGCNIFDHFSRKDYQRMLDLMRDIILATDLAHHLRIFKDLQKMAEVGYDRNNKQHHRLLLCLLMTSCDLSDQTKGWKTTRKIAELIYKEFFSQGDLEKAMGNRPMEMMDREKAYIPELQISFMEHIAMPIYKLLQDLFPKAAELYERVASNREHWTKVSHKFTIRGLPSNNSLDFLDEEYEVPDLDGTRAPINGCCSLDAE
Experiment: Recombinant PDE isozyme assay
Assay type: biochemical
Settings: read-out: cAMP IC50; PDE 2A, cAMP substrate
REPORTED METRIC: IC50

Request: Would you mind telling me what IC50 value was observed for CC1=C(CCNCc2ccccc2)c2cc(F)ccc2/C1=C\c1ccc([S+](C)[O-])cc1 (stereo not shown) ?
Result: > 100 µM

* * *

Target: UniProtKB P05979
Assay: COX-1 colorimetric activity assay
Type: biochemical
Details: read-out: COX-1 inhibition IC50; purified ovine COX-1
REPORTED METRIC: IC50
The answer consists of two parts: a number and, after it, its unit.

Request: Would you mind telling me what IC50 value was observed for CSc1ccc(/C=C2/C(C)=C(CC(=O)O)c3cc(F)ccc32)cc1 [sulindac sulfide, Sulindac sulfide, reference compound] ?
Result: 2000 nM

* * *

Target: PDE1C (Homo sapiens, UniProt Q14123)
Sequence (Q14123 whole entry): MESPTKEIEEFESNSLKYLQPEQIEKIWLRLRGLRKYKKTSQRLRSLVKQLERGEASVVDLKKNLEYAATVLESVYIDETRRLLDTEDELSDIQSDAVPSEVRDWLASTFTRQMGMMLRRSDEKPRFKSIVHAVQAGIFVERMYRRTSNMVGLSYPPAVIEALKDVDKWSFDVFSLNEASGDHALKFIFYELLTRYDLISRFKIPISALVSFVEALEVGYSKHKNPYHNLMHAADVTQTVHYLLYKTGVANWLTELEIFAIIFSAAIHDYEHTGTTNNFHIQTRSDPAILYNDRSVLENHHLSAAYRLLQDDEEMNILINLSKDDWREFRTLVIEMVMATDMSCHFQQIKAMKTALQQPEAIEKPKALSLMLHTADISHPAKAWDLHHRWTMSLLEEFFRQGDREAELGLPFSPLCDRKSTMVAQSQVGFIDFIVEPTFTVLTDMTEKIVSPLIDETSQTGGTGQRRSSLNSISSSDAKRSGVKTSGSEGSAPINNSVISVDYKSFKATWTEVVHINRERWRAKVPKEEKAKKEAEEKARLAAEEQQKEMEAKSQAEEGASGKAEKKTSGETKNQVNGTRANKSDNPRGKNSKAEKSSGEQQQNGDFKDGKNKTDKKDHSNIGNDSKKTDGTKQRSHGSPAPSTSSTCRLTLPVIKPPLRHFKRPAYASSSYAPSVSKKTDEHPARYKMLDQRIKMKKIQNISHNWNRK
Test: Recombinant PDE isozyme assay
Format: biochemical
pIC50: −log10 of the molar value.
REPORTED METRIC: pIC50

Request: Would you mind telling me what pIC50 value was observed for CC1=C(CCNCc2ccccc2)c2cc(F)ccc2/C1=C\c1ccc([S+](C)[O-])cc1 (stereo not shown) [SBA] ?
Result: < 4.00

* * *

Biological target: purified ovine COX-1 (Ovis aries, UniProt P05979)
Sequence (P05979 25-600): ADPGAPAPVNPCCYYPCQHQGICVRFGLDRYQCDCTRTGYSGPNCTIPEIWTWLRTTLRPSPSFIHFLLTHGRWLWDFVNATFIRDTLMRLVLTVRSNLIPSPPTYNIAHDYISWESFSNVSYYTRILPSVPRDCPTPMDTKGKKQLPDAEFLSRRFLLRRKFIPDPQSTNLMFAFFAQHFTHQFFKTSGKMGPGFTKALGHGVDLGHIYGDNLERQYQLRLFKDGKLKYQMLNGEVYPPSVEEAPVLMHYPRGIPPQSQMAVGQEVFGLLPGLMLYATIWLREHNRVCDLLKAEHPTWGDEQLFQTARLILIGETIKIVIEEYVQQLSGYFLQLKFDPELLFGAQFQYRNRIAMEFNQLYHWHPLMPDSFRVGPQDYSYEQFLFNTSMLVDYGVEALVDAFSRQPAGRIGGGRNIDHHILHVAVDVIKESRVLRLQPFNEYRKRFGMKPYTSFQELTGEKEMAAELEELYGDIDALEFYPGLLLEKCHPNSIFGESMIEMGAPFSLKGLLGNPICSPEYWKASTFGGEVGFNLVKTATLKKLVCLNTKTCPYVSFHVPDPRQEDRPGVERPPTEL
Assay: COX-1 colorimetric activity assay
Assay type: biochemical
REPORTED METRIC: IC50

Request: Would you mind telling me what IC50 value was observed for CC1=C(CCNCc2ccccc2)c2cc(F)ccc2/C1=C\c1ccc([S+](C)[O-])cc1 (stereo not shown) ?
Result: > 200 µM

* * *

Target chain: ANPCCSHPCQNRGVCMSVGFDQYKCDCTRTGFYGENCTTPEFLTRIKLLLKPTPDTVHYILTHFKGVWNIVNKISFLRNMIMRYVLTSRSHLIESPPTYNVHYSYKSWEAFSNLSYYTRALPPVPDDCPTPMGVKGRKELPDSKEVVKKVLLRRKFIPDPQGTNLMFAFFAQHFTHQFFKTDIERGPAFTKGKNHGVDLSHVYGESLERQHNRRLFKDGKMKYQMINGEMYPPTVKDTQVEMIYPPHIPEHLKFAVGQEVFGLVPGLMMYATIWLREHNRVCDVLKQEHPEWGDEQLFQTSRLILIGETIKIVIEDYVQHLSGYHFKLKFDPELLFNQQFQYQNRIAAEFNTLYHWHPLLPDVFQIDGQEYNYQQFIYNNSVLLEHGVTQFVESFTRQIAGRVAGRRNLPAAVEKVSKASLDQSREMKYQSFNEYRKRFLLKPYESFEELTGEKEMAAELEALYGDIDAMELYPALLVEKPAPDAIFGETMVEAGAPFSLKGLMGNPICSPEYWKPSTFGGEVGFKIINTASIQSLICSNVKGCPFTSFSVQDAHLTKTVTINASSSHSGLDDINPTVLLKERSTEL
pIC50: −log10 of the molar value.
REPORTED METRIC: pIC50

Request: Would you mind telling me what pIC50 value was observed for CC1=C(CCNCc2ccccc2)c2cc(F)ccc2/C1=C\c1ccc([S+](C)[O-])cc1 (stereo not shown) ?
Result: < 3.70
